So I've got a bunch of variants here, and I need their enrichment ratio values.
B1: PhoQ; a variant is named by its letters at X, in order, P23837 (parent)
chain: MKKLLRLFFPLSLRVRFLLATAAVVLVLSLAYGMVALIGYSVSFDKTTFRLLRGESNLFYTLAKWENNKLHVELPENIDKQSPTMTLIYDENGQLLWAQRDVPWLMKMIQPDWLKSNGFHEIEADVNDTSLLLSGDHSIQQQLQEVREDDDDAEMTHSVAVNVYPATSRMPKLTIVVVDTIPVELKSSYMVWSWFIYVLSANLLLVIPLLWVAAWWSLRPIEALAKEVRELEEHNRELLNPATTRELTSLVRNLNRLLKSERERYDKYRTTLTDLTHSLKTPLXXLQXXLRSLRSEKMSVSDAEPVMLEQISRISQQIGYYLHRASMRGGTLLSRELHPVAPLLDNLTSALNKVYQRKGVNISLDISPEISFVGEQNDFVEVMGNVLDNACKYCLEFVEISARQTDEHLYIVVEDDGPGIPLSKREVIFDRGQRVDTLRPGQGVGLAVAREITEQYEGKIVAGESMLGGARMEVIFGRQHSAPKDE

# Variants of: B1
# procedure details: enrichment ratio after two sorts for PhoP signalling (ratio (wild type AVST 3.29)); higher = more functional
# conditions used: with PhoP (E. coli)
Whole data set: some 140,000 sequences, median “enrichment ratio after two sorts for PhoP signalling” near 0, cut for the highest 2% near 11. Shown is part of a subset that was picked to be rich in the highest values.

Consider the worked cases shown below.
CVCM :: ≤ 0.25
DEAF :: ≤ 0.25
SCCI :: 9.92
SCCE :: 13.9
FQFN :: ≤ 0.25
PAWH :: ≤ 0.25

Fill in enrichment ratio for each of the 7 variants listed.
1. FMVV
2. DWTN
3. KCCQ
4. FVQK
5. SCCK
6. KQLN
7. MNST

(A)
≤ 0.25
≤ 0.25
≤ 0.25
≤ 0.25
14.3
≤ 0.25
≤ 0.25

State recorded enrichment ratio for all listed variants.
1. NVQK
2. TVQV
3. SVSG
4. GVST
5. TVQQ
6. SHNF

(A)
["≤ 0.25", 12.7, 13.4, "≤ 0.25", 12.6, 9.74]
